# System tested: Recombinant human renin (Homo sapiens, UniProt P00797)
# Construct: isolate the active form (residues 67-406); made in house; host or cells: FreeStyle 293-F cells (transient expression of pcDNA3.1(+)/hREN)
# Sequence (P00797 67-406): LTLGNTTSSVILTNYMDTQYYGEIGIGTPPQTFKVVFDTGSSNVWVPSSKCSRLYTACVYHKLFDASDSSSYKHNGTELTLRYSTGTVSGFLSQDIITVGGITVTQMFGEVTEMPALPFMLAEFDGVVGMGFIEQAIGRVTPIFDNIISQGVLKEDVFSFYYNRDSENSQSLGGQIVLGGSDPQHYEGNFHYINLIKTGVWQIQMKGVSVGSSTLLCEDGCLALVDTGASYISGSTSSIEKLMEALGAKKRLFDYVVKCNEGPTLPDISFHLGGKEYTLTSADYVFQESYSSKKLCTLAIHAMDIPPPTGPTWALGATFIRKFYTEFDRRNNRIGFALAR
# Assay remarks: In vitro enzymatic activity assay of renin inhibitors (fluorogenic peptide substrate)
# Type: biochemical
# Settings: read-out: IC50 of Exemplified Compounds Against Renin
pIC50: −log10 of the molar value.
Test readout: pIC50

Answered cases to consult:
In [3]: df
Out[3]:
                                   compound  experimental_result
0  O=C(Nc1ccc2c(c1)OCCO2)N1CCCC(c2nc3ccccc3[nH]2)C1 (stereo not shown)               < 6.00
1  COCCCn1c([C@@H]2CCCN(C(=O)C[C@H](N)Cc3ccc(-c4ccnc(F)c4)cc3)C2)nc2ccccc21               > 7.00
2  COCCCn1c([C@@H]2CCCN(C(=O)C[C@H](N)Cc3ccc(-c4ccc(NC(=O)C(C)(C)O)cc4)cc3)C2)nc2ccccc21               > 7.00
3  COCCCn1c([C@@H]2CCCN(C(=O)C[C@H](N)CNC(=O)Nc3ccc(Cl)cc3)C2)nc2ccccc21         6.00 to 7.00
4  CCCNC(=O)N1CCCC(c2nc3ccccc3[nH]2)C1 (stereo not shown)               < 6.00
5  COCCCn1c([C@@H]2CCCN(C(=O)C[C@H](N)CNC(=O)c3cccc(-c4noc(C)n4)c3)C2)nc2ccccc21         6.00 to 7.00

With those in mind, consider the next compound.
Request body: readout pIC50, system Recombinant human renin (Homo sapiens, UniProt P00797), query CC(=O)NCCn1c([C@@H]2CCCN(C(=O)C[C@H](N)Cc3ccc(-c4ccc(N)nc4)cc3)C2)nc2c(C)cccc21 . Return the value.
6.00 to 7.00

----------
# System tested: Recombinant human renin (Homo sapiens, UniProt P00797)
# Construct: isolate the active form (residues 67-406); made in house; host or cells: FreeStyle 293-F cells (transient expression of pcDNA3.1(+)/hREN)
# Assay remarks: In vitro enzymatic activity assay of renin inhibitors (fluorogenic peptide substrate)
# Type: biochemical
# Settings: read-out: IC50 of Exemplified Compounds Against Renin
Test readout: IC50

A selection of reference data follows.
>>> df
                                   compound                             system_tested  test_readout  experimental_result
0  COCCCn1c([C@@H]2CCCN(C(=O)[C@@H]3CN(S(=O)(=O)c4cccc5ccccc45)C[C@H]3N)C2)nc2ccccc21 [Compound 354]  Recombinant human renin (Homo sapiens, UniProt P00797)          IC50       100 to 1000 nM
1  COCCCn1c([C@@H]2CCCN(C(=O)[C@@H]3CN(S(=O)(=O)c4cccc(NC(C)=O)c4)C[C@H]3N)C2)nc2ccccc21 [Compound 429]  Recombinant human renin (Homo sapiens, UniProt P00797)          IC50             < 100 nM
2  COCCCn1c([C@@H]2CCCN(C(=O)[C@@H]3CN(S(=O)(=O)c4cc(Cl)ccc4OC)C[C@H]3N)C2)nc2ccccc21 [Compound 412]  Recombinant human renin (Homo sapiens, UniProt P00797)          IC50            > 1000 nM
3  CCCSc1ncccc1C(=O)NC[C@@H](N)CC(=O)N1CCC[C@@H](c2nc3ccccc3n2CCCOC)C1 [Compound 307]  Recombinant human renin (Homo sapiens, UniProt P00797)          IC50       100 to 1000 nM
4  COCCCn1c([C@@H]2CCCN(C(=O)C[C@H](N)Cc3ccc4ccccc4c3)C2)nc2cc(C)ccc21 [Compound 105]  Recombinant human renin (Homo sapiens, UniProt P00797)          IC50             < 100 nM

Name the reported IC50 value associated with the compound COCCCn1c([C@@H]2CCCN(C(=O)C[C@@H](N)COc3ccccc3C(=O)OC)C2)nc2ccccc21 [Compound 432]
> 1000 nM

Entry COCCCn1c([C@@H]2CCCN(C(=O)C[C@H](N)Cc3ccc4ccccc4c3)C2)nc2c(C)cccc21 [Compound 106] : reported IC50 = ?
< 100 nM

Look up IC50 for this compound: COCCCn1c([C@@H]2CCCN(C(=O)C[C@H](N)CNC(=O)CC3CCCCC3)C2)nc2ccccc21 [Compound 319]
100 to 1000 nM

Please look up its IC50: COCCCn1c([C@@H]2CCCN(C(=O)[C@@H]3CN(C(=O)C4CCCC4)C[C@H]3N)C2)nc2ccccc21 [Compound 395]
> 1000 nM

# lookup: IC50 of COCCCn1c([C@@H]2CCCN(C(=O)C[C@H](N)Cc3ccc(-c4ccc5c(c4)OCCN5C)cc3)C2)nc2c(F)cccc21 [Compound 453]
< 100 nM

Entry N[C@@H](CC(=O)N1CCCC(c2nc3ccccc3[nH]2)C1)Cc1ccc(Cl)c(Cl)c1 (some centres unmarked) [Compound 36] has what IC50?
> 1000 nM

Requested read-out: IC50. Entry: COCCCn1c([C@@H]2CCCN(C(=O)C[C@H](N)Cc3ccc(-c4ccc(NC(=O)NC5CC5)cc4)cc3)C2)nc2ccccc21 [Compound 171]
< 100 nM

What does the data say about its IC50? Entry: COCCCn1c([C@@H]2CCCN(C(=O)C[C@H](N)Cc3ccc(-c4cn(C)c(=O)n(C)c4=O)cc3)C2)nc2ccccc21 [Compound 205]
< 100 nM

Can you look up the measured IC50 of COCCCn1c([C@@H]2CCCN(C(=O)C[C@H](N)CNC(=O)Nc3cccc(OC)c3)C2)nc2ccccc21 [Compound 254] for me?
< 100 nM
